- protocol-description: Kinetic solubility
- Type: physicochemical
- condition-set: phosphate buffered saline, pH 7.4, aqueous buffer, kinetic from dmso stock
We use 100 µg/mL as the dividing line for solubility at 1 h: on or above the line is yes (1), below is no (0).

In [3]: df
Out[3]:
                          smiles_notation  class_name
0  Cc1oc(-c2ccccc2)nc1C(=O)NCCN1CCCCCC1=O     yes (1)

Let us examine a further case.
Q: Please indicate if the recorded solubility at 1 h for `O=C(Nc1ccccc1C(=O)NC1CC1)c1cccc(N2CCCC2=O)c1` meets or exceeds 100 µg/mL.
Result: yes (1)
